Below, each entry is listed with its recorded TR-FRET signal.
Target: MAGE-A11:PCF11 (Homo sapiens (Human), UniProt P43364)
Sequence (P43364 218-429): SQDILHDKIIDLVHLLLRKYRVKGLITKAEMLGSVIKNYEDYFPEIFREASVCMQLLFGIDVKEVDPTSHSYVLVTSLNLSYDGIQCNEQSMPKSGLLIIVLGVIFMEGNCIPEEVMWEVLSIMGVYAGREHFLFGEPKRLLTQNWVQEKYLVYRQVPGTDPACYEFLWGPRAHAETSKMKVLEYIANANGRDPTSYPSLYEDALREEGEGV
Test: TR-FRET single point screening at 15 μM
Format: binding
Parameters: unit not given here
Conditions: single point TR-FRET screening at 15 μM against MAGE-A11:PCF11
Respond using a number only.

COc1ccc2ncc(S(=O)(=O)c3ccc(C)cc3)c(N3CCN(c4ccccc4F)CC3)c2c1 ... 6.02

query: Consider the compound C#CCOCC(O)CN1CCN(c2cc(C(F)(F)F)nc3ccccc23)CC1 (centres unmarked) tested on MAGE-A11:PCF11 (Homo sapiens (Human), UniProt P43364); state its TR-FRET signal.
result: −9.516

query: Consider the compound Fc1cccc(CN(CCCCNc2ccnc3cc(Cl)ccc23)Cc2ccccc2)c1 tested on MAGE-A11:PCF11 (Homo sapiens (Human), UniProt P43364); state its TR-FRET signal.
result: 28.34

query: Consider the compound CCCCCCN1CCC(Nc2ccnc3cc(Cl)ccc23)CC1 tested on MAGE-A11:PCF11 (Homo sapiens (Human), UniProt P43364); state its TR-FRET signal.
result: 29.3

query: Consider the compound CN1CCN(c2c(S(=O)(=O)c3ccccc3)cnc3ccc(F)cc23)CC1 tested on MAGE-A11:PCF11 (Homo sapiens (Human), UniProt P43364); state its TR-FRET signal.
result: −11.5

* * *

Target: MAGE-A11:PCF11 (Homo sapiens (Human), UniProt P43364)
Experiment: TR-FRET single point screening at 15 μM
Type: binding
Design: unit not given here
Settings: single point TR-FRET screening at 15 μM against MAGE-A11:PCF11
EXPERIMENTAL READOUT: TR-FRET signal
Respond using a number only.

query: Determine from records and report TR-FRET signal for COc1ccc2nc3cc(Cl)ccc3c(NCCCNCc3cc4ccccc4o3)c2c1
result: −146.7

query: Determine from records and report TR-FRET signal for CCN1CCN(c2c(C(=O)c3ccccc3)cnc3ccc(OC)cc23)CC1
result: −0.2733

query: Determine from records and report TR-FRET signal for COc1ccc2nc3cc(Cl)ccc3c(NCCCNCc3ccc(F)cc3)c2c1
result: −398.2

query: Determine from records and report TR-FRET signal for COc1cc2ncc(S(=O)(=O)c3ccc(C)cc3)c(N3CCN(C)CC3)c2cc1OC
result: 1.313

query: Determine from records and report TR-FRET signal for CCC(CC)CN1CCC(Nc2ccnc3cc(Cl)ccc23)CC1
result: 9.754

query: Determine from records and report TR-FRET signal for CC(C)(C)CCN(CCCCNc1ccnc2cc(Cl)ccc12)Cc1ccccc1
result: 34.54

query: Determine from records and report TR-FRET signal for CCCN(CCCNc1c2ccc(Cl)cc2nc2ccc(OC)cc12)Cc1ccccn1
result: −146.2

* * *

Target: MAGE-A11:PCF11 (Homo sapiens (Human), UniProt P43364)
Test: TR-FRET single point screening at 15 μM
Type: binding
Design: unit not given here
Conditions: single point TR-FRET screening at 15 μM against MAGE-A11:PCF11
EXPERIMENTAL READOUT: TR-FRET signal
Respond using a number only.

Completed entries (count: 3):
CCc1ccc(S(=O)(=O)c2cnc3ccccc3c2N2CCN(c3ccccc3OC)CC2)cc1 [SJ000117069] ... −47.44
COc1ccc2nc3cc(Cl)ccc3c(NCCCNCc3cccc(C(F)(F)F)c3)c2c1 [SJ000520990] ... −408.1
CN(C)CCNc1c2c(nc3ccccc13)CCC2 [SJ000013622] ... 3.285

Read the next record carefully.
query: Determine from records and report TR-FRET signal for COc1ccc2nc3cc(Cl)ccc3c(NCCCNCc3cccn3C)c2c1 [SJ000520985]
result: −402.5
